# TARGET_OR_TEST_SYSTEM: T1, CRBN, Q96SW2;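 note: pooled lentiviral library of zinc finger degron-EGFP fusions in mCherry-positive Jurkat cells, FACS-sorted after compound exposure, with degron abundance counted by next-generation sequencing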
# T1 chain: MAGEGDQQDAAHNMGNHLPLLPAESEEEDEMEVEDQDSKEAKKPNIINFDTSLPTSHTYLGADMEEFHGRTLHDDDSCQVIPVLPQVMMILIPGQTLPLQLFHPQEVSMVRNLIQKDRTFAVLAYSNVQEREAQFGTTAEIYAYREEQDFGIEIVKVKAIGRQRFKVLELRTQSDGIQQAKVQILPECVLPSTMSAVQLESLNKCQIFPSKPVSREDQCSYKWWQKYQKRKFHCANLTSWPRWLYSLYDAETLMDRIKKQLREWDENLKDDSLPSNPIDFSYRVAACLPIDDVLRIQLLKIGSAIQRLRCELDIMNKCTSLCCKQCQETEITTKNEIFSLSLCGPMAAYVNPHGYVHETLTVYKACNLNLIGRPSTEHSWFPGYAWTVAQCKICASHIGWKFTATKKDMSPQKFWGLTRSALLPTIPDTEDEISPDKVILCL
# PROTOCOL_DETAILS: log2 fold change of degron read counts, EGFP-low vs EGFP+ sorted cells (limma voom), compound-induced degradation; higher = more compound-induced degradation of the degron-EGFP fusion; degrons are variants of IKZF1/3 zinc finger 2; compound dose not given here
# PROTOCOL_CONDITIONS: Jurkat; 18 h; compound: compound 22 (5-morpholino-thalidomide)
The full ranking holds about 8,300 sequences; the median of “log2 fold change of degron read counts, EGFP-low vs EGFP+ sorted cells (limma voom), compound-induced degradation” is about -1.1, and the highest 2% start at about 3.2. This excerpt belongs to a sample that is enriched for the highest values.
ASSAY_ENDPOINT: log2 fold change of degron read counts

>  <SEQUENCE_CODE>
FWCEVCGALFTQKGNLLRHIKL [46F_47W_49E_50V_52G_53A_54L_55F_67L_, Q9UKT9]

>  <ASSAY_ENDPOINT>
log2 fold change of degron read counts

>  <REPORTED_RESULT>
2.69

$$$$
>  <SEQUENCE_CODE>
FDCPICGAVFTQKGNLLRHIKL [46F_47D_49P_50I_52G_53A_54V_55F_67L_, Q9UKT9]

>  <ASSAY_ENDPOINT>
log2 fold change of degron read counts

>  <REPORTED_RESULT>
0.176

$$$$
>  <SEQUENCE_CODE>
FRCSVCGHFFTQKGNLLRHIKL [46F_47R_49S_50V_52G_53H_54F_55F_67L_, Q9UKT9]

>  <ASSAY_ENDPOINT>
log2 fold change of degron read counts

>  <REPORTED_RESULT>
-2.33

$$$$
>  <SEQUENCE_CODE>
FECEVCGARFTQKGNLLRHIKL [46F_47E_49E_50V_52G_53A_54R_55F_67L_, Q9UKT9]

>  <ASSAY_ENDPOINT>
log2 fold change of degron read counts

>  <REPORTED_RESULT>
-0.689

$$$$
>  <SEQUENCE_CODE>
FWCEVCGARFTQKGNLLRHIKL [46F_47W_49E_50V_52G_53A_54R_55F_67L_, Q9UKT9]

>  <ASSAY_ENDPOINT>
log2 fold change of degron read counts

>  <REPORTED_RESULT>
3.82

$$$$
>  <SEQUENCE_CODE>
FYCEVCGADFTQKGNLLRHIKL [46F_47Y_49E_50V_52G_53A_54D_55F_67L_, Q9UKT9]

>  <ASSAY_ENDPOINT>
log2 fold change of degron read counts

>  <REPORTED_RESULT>
1.02

$$$$
>  <SEQUENCE_CODE>
FYCEVCGARFTQKGNLLRHIKL [46F_47Y_49E_50V_52G_53A_54R_55F_67L_, Q9UKT9]

>  <ASSAY_ENDPOINT>
log2 fold change of degron read counts

>  <REPORTED_RESULT>
3.8

$$$$
